Hey, just so you know, these numbers are from patent US20110135636A1.

molecular target: T1, recombinant human EGFR extracellular domain with 6xHis (human, UniProt P00533 25-645); test: SPR competition, competitor 1308
T1 construct: In-house produced; also called 6xHis EGFR ECD; soluble human EGFR ECD; not shown: 6xHis tag
The following binders are shown together with reported % inhibition values.
Just the number in %, nothing appended.

The following binders have reported results that may help.
Binder	Unit Spec	Readout Number
antibody 1308 (antibody, human IgG1, kappa, V domains shown, Chimeric IgG1 kappa) VH: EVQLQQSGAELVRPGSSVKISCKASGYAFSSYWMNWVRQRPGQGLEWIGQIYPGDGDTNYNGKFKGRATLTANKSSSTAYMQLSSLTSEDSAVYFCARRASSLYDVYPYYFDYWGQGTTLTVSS VL: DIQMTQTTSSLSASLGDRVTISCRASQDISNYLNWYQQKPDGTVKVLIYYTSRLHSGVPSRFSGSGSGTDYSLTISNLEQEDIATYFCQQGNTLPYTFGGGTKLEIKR	%	75
antibody 1347 (antibody, human IgG1, kappa, V domains shown, Chimeric IgG1 kappa) VH: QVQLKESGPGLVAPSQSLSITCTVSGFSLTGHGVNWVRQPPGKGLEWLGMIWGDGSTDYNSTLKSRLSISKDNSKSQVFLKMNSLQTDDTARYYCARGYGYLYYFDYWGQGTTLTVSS VL: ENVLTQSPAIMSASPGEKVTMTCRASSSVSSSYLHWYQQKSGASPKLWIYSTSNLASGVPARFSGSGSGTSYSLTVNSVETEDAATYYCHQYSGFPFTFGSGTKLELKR	%	82

Pending binder:
INPUT: State, in one line, measured % inhibition of antibody 1284 (antibody, human IgG1, kappa, V domains shown, Chimeric IgG1 kappa) VH: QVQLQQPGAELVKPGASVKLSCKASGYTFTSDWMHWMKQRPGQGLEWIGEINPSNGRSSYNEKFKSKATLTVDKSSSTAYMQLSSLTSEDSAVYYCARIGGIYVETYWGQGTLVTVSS VL: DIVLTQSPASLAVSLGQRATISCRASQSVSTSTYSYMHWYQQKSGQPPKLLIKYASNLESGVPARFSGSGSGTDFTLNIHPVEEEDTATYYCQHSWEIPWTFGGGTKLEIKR
OUTPUT: 68
